Please consider the recorded AC50 for Cytochrome P450 2C9 (Homo sapiens, UniProt P11712) in what follows.

>  <Compound>
Cc1ccc(-c2ccc(=O)n(CC(=O)N3CCN(c4cccc(C)c4)C(C)C3)n2)cc1 (stereo not given)

>  <AC50>
20 µM (inconclusive)

$$$$
>  <Compound>
O=C(CSc1nc2ccccc2s1)c1sc2sc3ccccc3[n+]2c1O

>  <AC50>
6.31 µM (inconclusive)

$$$$
>  <Compound>
COC(=O)C(C)Sc1ccc2nnc(-c3ccc(F)cc3)n2n1 (stereo not given)

>  <AC50>
3.55 µM (inconclusive)

$$$$
>  <Compound>
COCc1c(C(=O)OCC(=O)N2c3ccccc3NC(=O)C2(C)C)oc2ccccc12

>  <AC50>
31.6 µM (inconclusive)

$$$$
>  <Compound>
CCN1C(=O)[C@@H]2[C@H]3C(=CC[C@@H]2C1=O)C1(OCCCO1)[C@H]1O[C@@H]1[C@H]3O

>  <AC50>
5.01 µM (inconclusive)

$$$$
>  <Compound>
Cc1cc(C)c2nc3c(c([C@H](O)[C@@H]4CCCCN4)c2c1)CC/C3=C/c1ccc(Cl)cc1

>  <AC50>
1 µM (inconclusive)

$$$$
>  <Compound>
Cc1ccc2nc(-c3ccccc3)c(CN(C)C)c(O)c2c1

>  <AC50>
12.6 µM (inconclusive)

$$$$
>  <Compound>
O=S(=O)(c1ccccc1)c1cnn2c(C(F)(F)F)cc(-c3ccccc3)nc12

>  <AC50>
0.708 µM (inconclusive)

$$$$
>  <Compound>
CCOC(=O)c1ccc(NC(=O)C2CCCO2)cc1 (stereo not given)

>  <AC50>
0.0251 µM (inconclusive)

$$$$
>  <Compound>
O=C(O)/C=C/c1cn(-c2ncc(C(F)(F)F)cc2Cl)c2ccccc12

>  <AC50>
17.8 µM (inconclusive)

$$$$
